- targetOrSystem: human EAA2a receptor (Homo sapiens)
- Sequence (Q16478 15-980): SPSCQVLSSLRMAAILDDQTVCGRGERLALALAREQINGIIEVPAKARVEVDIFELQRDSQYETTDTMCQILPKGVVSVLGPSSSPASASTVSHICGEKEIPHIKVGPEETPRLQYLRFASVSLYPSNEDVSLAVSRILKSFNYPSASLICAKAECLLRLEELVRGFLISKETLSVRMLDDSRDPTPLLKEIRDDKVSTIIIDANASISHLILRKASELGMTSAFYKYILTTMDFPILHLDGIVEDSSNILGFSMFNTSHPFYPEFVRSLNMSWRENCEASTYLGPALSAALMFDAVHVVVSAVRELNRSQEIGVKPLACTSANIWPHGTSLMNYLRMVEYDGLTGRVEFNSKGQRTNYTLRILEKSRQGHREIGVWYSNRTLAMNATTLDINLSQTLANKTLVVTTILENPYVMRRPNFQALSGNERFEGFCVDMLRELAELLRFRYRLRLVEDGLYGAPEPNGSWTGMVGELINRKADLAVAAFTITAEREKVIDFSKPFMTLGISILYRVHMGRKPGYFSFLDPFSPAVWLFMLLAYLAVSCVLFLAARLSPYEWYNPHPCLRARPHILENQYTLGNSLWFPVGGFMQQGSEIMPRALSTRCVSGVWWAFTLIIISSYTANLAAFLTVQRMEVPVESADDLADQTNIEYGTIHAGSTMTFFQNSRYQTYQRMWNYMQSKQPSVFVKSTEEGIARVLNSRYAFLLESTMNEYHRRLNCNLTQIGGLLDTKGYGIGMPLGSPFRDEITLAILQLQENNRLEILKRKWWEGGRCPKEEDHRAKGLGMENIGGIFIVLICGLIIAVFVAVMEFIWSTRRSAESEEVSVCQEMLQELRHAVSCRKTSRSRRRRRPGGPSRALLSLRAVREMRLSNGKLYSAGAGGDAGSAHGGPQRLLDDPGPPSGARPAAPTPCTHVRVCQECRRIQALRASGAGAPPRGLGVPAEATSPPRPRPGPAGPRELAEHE
measurementType: Kd (nM)
Response body: numeric value in nM, unit text excluded.

Give the measured Kd of C=C(C)[C@H]1CN[C@H](C(=O)O)[C@H]1CC(=O)O [kainate, kainic acid] .
2.9
